# System: normal human epidermal keratinocytes
# Procedure Summary: Synthesis of total glycosaminoglycans, [3H]-glucosamine incorporation in normal human epidermal keratinocytes
# Format: cell-based
# Recorded Conditions: 100 μM, 72 hours
Property Measured: % relative to control, glucosamine incorporation

Past entries and their recorded results:
>  <Compound>
CNC(=O)C(O)C1O[C@@H](C)[C@H](O)[C@@H](O)[C@H]1O (stereo partly drawn)

>  <Tgt>
normal human epidermal keratinocytes

>  <Assay Value>
131%

$$$$
>  <Compound>
CNC(=O)C(O)C1O[C@H](CO)[C@@H](O)[C@H](O)[C@@H]1O (stereo partly drawn)

>  <Tgt>
normal human epidermal keratinocytes

>  <Assay Value>
134%

$$$$

# context switch: different compound, same % relative to control, glucosamine incorporation
Hello, please tell me recorded % relative to control, glucosamine incorporation for this one: CNC(=O)C(O)C1O[C@H](CO)[C@H](O)[C@H](O)[C@H]1O (stereo partly drawn)
132%
